# Lookup of reported pIC50 keyed by entry
target.entity: MCH1 receptor (UniProt P97639)
pIC50: −log10 of the molar value. Structures can show the parent of a compound that is named as a salt.
quantity.kind: pIC50

{"columns": ["compound", "quantity.kind", "readout.value"],
 "data": [
  ["COc1ccc(-c2nnc(NC3CCN(Cc4ccccc4)CC3)c3cc(OC)cc(OC)c23)cc1 [Example 2]", "pIC50", 7.14],
  ["c1ccc(-c2ccc3c(-c4ccccc4)nnc(NC4CCN(Cc5ccc6ccccc6c5)CC4)c3c2)cc1 [Example 42, dihydrochloride]", "pIC50", 6.44]
]}

* * *

Structures can show the parent of a compound that is named as a salt.
# Lookup of reported melting point keyed by entry
quantity.kind: melting point (°C)

{"columns": ["molecule", "measurement.units", "readout.value"],
 "data": [
  ["COc1ccc(-c2nnc(NC3CCN(Cc4ccc5ncsc5c4)CC3)c3cc(OC)ccc23)cc1 (as salt: salt) (hydrate or solvate) [Compound 59]", "°C", 180],
  ["CCCCc1nnc(NC2CCN(Cc3ccc4ccccc4c3)CC2)c2cc(OC)ccc12 (as salt: salt) (hydrate or solvate) [Compound 67]", "°C", 101],
  ["COc1ccc(-c2nnc(NC3CCN(Cc4ccc(C)c(C)c4)CC3)c3cc(OC)ccc23)cc1 (as salt: salt) (hydrate or solvate) [Compound 29]", "°C", 130]
]}

* * *

Where a name gives a salt, the structure may show the parent alone.
quantity.kind: melting point (°C)

{"columns": ["compound", "quantity.kind", "readout.value"],
 "data": [
  ["COc1cccc(-c2nnc(NC3CCN(Cc4ccccc4)CC3)c3cc(OC)ccc23)c1 (as salt: salt) (hydrate or solvate)", "melting point", 176],
  ["Fc1ccc(-c2nnc(NC3CCN(Cc4ccc5ccccc5c4)CC3)c3cc(F)ccc23)cc1", "melting point", 207],
  ["COc1ccc2c(COCc3ccccc3)nnc(NC3CCN(Cc4ccc5ccccc5c4)CC3)c2c1.Cl.Cl", "melting point", 284],
  ["COc1ccc(OC)c(-c2nnc(NC3CCN(Cc4ccc5ncsc5c4)CC3)c3cc(OC)ccc23)c1 (as salt: salt) (hydrate or solvate)", "melting point", 193],
  ["COc1ccc(-c2nnc(NC3CCN(Cc4ccc(OC)c(C)c4)CC3)c3cc(OC)ccc23)cc1 (as salt: salt) (hydrate or solvate)", "melting point", 270],
  ["COc1ccc(-c2nnc(NC3CCN(Cc4ccc5ccccc5c4)CC3)c3cc(OC)cc(OC)c23)cc1.Cl.Cl (hydrate or solvate)", "melting point", 212],
  ["COc1cc(OC)cc(-c2nnc(NC3CCN(Cc4ccc5ccccc5c4)CC3)c3cc(OC)ccc23)c1.Cl.Cl (hydrate or solvate)", "melting point", 240],
  ["COc1ccc2c(-c3ccc(C)s3)nnc(NC3CCN(Cc4ccccc4)CC3)c2c1 (as salt: salt) (hydrate or solvate)", "melting point", 155],
  ["COc1ccc2c(Cc3ccccc3)nnc(NC3CCN(Cc4ccc5ccccc5c4)CC3)c2c1 (as salt: salt) (hydrate or solvate)", "melting point", 104],
  ["COc1ccc2c(-c3ccc(OC)c(OC)c3)nnc(NC3CCN(Cc4ccc5ccccc5c4)CC3)c2c1 (as salt: salt) (hydrate or solvate)", "melting point", 131],
  ["COc1ccc(-c2nnc(NC3CCN(Cc4ccc5sccc5c4)CC3)c3cc(OC)ccc23)cc1 (as salt: salt) (hydrate or solvate)", "melting point", 176],
  ["COc1ccc(-c2nnc(NC3CCN(Cc4ccc5oc(=O)ccc5c4)CC3)c3cc(OC)ccc23)cc1.Cl.Cl (hydrate or solvate)", "melting point", 293],
  ["COCc1nnc(NC2CCN(Cc3ccc4ccccc4c3)CC2)c2cc(OC)ccc12.Cl (hydrate or solvate)", "melting point", 176]
]}
